All values here come from the supplement of paper PMC10681739.

# TARGET_DESC: ETS1 (UniProt P14921)
# Sequence: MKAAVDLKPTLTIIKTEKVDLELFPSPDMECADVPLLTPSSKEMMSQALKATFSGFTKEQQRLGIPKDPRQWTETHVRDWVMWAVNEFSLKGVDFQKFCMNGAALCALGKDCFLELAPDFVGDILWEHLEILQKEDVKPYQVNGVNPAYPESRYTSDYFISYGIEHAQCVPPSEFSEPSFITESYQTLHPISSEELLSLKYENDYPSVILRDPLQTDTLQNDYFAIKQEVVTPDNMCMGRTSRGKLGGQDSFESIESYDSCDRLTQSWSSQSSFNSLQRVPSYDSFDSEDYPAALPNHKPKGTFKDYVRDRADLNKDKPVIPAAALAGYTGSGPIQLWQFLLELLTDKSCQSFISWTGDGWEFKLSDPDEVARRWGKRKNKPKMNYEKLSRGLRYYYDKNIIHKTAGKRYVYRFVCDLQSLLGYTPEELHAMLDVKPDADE
# EXPERIMENT_NOTES: ETS1 binding intensity (PBM fluorescence), ETS1 alone (arbitrary fluorescence units); higher = stronger binding
# ASSAY_SETUP: ETS1 concentration 1 nM; RUNX1 concentration 0 nM
READOUT_LABEL: ETS1 binding intensity
Form rule: numeric answer, no unit written next to it.

Illustrative cases are given below, each with its answer.
q: Provide ETS1 binding intensity, recorded with ETS1 (UniProt P14921), of TTTGTAAGAGGAGGAAGTGGTTTGTAAGAGGAGAAA
a: 2180

q: Provide ETS1 binding intensity, recorded with ETS1 (UniProt P14921), of ACGTCTGTTTCCTGTGATTGAAACCGCAAGAAGAAG
a: 783

q: Provide ETS1 binding intensity, recorded with ETS1 (UniProt P14921), of TGGAATTGAAAGGAAGCTGGCGCCACCGCAGAGGAC
a: 658

q: Provide ETS1 binding intensity, recorded with ETS1 (UniProt P14921), of GGACACAGGCTTCCGCGTTACCGACACCGCGTGGGG
a: 451

Further cases:
q: Provide ETS1 binding intensity, recorded with ETS1 (UniProt P14921), of TCCTATATACTTCCGTTTGCCTCGCGGTTTCTTTCT
a: 1300

q: Provide ETS1 binding intensity, recorded with ETS1 (UniProt P14921), of ACCCCAGGTACCGGAAGACCACAATTCCCAGGAGTC
a: 2220

q: Provide ETS1 binding intensity, recorded with ETS1 (UniProt P14921), of AGCGGCTCCTTCCGGCGGCGCGGGTTCCCTTCCCTC
a: 624

q: Provide ETS1 binding intensity, recorded with ETS1 (UniProt P14921), of TGTTCAGGAACAGGAAATGAAACCCCGCAGCTTTGA
a: 8520

q: Provide ETS1 binding intensity, recorded with ETS1 (UniProt P14921), of AAACCCCAAACAGGAAGTGGTAAAGCAACCTGCATC
a: 11200

q: Provide ETS1 binding intensity, recorded with ETS1 (UniProt P14921), of TAAGGATGTGTGGCTTCCAGATCAAAAACCGCAAAA
a: 516

q: Provide ETS1 binding intensity, recorded with ETS1 (UniProt P14921), of TGAGCCTTGGAAGGAAATGATTCACCACAATACTGT
a: 741

q: Provide ETS1 binding intensity, recorded with ETS1 (UniProt P14921), of TTCATTTCTACCTTCCTGTGGTCTTTTTGCCTCCGA
a: 512
